# SUBJECT_OF_TEST: T1, hVEGF-C (human, UniProt P49767)
# T1 construct: unlabelled; also called human VEGF-C
# T1 sequence (VEGF-C, looked up): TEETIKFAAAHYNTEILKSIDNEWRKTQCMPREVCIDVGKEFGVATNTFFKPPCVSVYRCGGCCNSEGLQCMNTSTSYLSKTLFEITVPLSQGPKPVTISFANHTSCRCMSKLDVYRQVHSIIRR
# ASSAY_DETAILS: phage competition ELISA: phage-displayed clone incubated with increasing soluble hVEGF-C, unbound phage captured on hVEGF-C coated plate, anti-M13-HRP, OD450
READOUT: IC50 (nM)
Value expressed in nM; do not type the unit.

BINDER	MEASUREMENT_UNITS	IC50
VC1.2 (antibody, V domains shown, also called clone VC1.2) VH: EVQLVESGGGLVQPGGSLRLSCAASGFTFSDSDIHWVRQAPGKGLEWVAWISPYSGYTDYADSVKGRFTISADTSKNTAYLQMNSLRAEDTAVYYCARLFEIIFDYWGQGTLVTVSS VL: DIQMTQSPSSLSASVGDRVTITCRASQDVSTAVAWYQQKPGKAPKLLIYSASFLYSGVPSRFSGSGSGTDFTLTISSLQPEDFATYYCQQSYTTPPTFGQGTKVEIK	nM	27.1

Ask: What does the data say about its IC50? Entry: VC1.4 (antibody, V domains shown, also called clone VC1.4) VH: EVQLVESGGGLVQPGGSLRLSCAASGFTFSDSDIHWVRQAPGKGLEWVAWISPYSGYTDYADSVKGRFTISADTSKNTAYLQMNSLRAEDTAVYYCVRLFGVIFDYWGQGTLVTVSS VL: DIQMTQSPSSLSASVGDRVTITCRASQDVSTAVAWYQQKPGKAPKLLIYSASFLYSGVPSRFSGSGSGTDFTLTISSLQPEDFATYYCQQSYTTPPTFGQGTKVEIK
Reply: 40.7
